# Test system: Akt/PKB phosphorylation in Raw 264-7 macrophages
# test: Cell based ELISA of Akt/PKB phosphorylation after Complement 5a stimulation
# test.parameters: Mus musculus, RAW264.7, 50 nM Complement 5a for 5 minutes, inhibitor pretreatment 20 minutes, read-out: Cell Assay (P-Akt, Elisa) IC50
metric: IC50 (nM)
Give the value, in units of nM, as a plain number.

Using the record for CC(=O)Nc1nc(C)c(-c2cnn(S(=O)(=O)c3cn(C)cn3)c2)s1 , report its IC50.
850

* * *

# measured.on: Human recombinant GST-PI3Kγ (Homo sapiens, UniProt P48736)
# Sequence (P48736 whole entry): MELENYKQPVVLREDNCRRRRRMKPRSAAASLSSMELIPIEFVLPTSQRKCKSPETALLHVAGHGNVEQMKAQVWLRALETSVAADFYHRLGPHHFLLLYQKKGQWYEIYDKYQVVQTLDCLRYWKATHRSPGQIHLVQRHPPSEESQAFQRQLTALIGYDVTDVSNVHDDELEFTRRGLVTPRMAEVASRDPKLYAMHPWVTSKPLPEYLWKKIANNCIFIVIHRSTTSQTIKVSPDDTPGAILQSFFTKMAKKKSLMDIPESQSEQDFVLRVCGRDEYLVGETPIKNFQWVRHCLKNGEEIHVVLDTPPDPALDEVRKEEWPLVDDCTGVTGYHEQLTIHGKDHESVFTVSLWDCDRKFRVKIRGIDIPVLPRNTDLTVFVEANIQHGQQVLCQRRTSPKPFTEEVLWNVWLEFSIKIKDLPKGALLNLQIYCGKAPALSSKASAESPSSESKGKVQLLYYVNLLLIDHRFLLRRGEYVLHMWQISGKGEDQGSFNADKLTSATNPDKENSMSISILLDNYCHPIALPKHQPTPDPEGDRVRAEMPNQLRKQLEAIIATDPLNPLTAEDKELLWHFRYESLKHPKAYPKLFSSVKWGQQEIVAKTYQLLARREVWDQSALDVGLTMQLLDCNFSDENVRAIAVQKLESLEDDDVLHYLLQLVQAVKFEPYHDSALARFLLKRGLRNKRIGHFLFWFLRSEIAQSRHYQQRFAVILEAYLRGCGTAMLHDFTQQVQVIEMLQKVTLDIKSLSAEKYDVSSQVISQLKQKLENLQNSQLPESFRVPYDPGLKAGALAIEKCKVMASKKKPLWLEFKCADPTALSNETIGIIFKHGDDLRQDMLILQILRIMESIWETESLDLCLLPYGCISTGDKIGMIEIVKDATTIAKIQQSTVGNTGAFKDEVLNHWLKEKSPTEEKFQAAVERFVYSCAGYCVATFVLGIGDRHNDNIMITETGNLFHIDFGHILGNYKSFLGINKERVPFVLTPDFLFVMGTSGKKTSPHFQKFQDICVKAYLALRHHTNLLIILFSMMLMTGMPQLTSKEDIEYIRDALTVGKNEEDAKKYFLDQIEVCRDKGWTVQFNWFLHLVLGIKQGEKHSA
# test: High throughput PI3K lipid kinase assay (SPA, neomycin-coated beads)
# test.parameters: 180 min at room temperature
# key: entry, value: pIC50
Interpret pIC50 as the negative base-10 log of the concentration measured in mol/L.

// worked examples, pIC50 included
[[record]]
molecule = "CC(=O)Nc1nc(C)c(-c2cnn(S(=O)(=O)c3cn(C)cn3)c2)s1 [Example 8]"
measured_on = "Human recombinant GST-PI3Kγ (Homo sapiens, UniProt P48736)"
metric = "pIC50"
reading = 6.95

[[record]]
molecule = "COc1ccc(S(=O)(=O)n2cc(-c3sc(NC(C)=O)nc3C)cn2)cn1 [Example 7]"
measured_on = "Human recombinant GST-PI3Kγ (Homo sapiens, UniProt P48736)"
metric = "pIC50"
reading = 6.55

[[record]]
molecule = "CC(=O)Nc1nc(C)c(-c2cnn(C(=O)NCCN(C)C)c2)s1 [Example 5]"
measured_on = "Human recombinant GST-PI3Kγ (Homo sapiens, UniProt P48736)"
metric = "pIC50"
reading = 5.91

[[record]]
molecule = "CC(=O)Nc1nc(C)c(-c2cnn(C)c2)s1 [Example 1]"
measured_on = "Human recombinant GST-PI3Kγ (Homo sapiens, UniProt P48736)"
metric = "pIC50"
reading = 5.87

[[record]]
molecule = "CC(=O)Nc1nc(C)c(-c2cnn(S(=O)(=O)c3ccc(C(=O)O)cc3)c2)s1 [Example 14]"
measured_on = "Human recombinant GST-PI3Kγ (Homo sapiens, UniProt P48736)"
metric = "pIC50"
reading = 6.15


Okay, now this molecule:
Using the record for CC(=O)Nc1nc(C)c(-c2cn[nH]c2)s1 [Example 3] , report its pIC50.
6.38
